Data origin: patent US9273029B2

Observed IC50 for IKKε (Homo sapiens (Human)), reported per entry below.
assayMetric: IC50 (nM)

In the examples that follow, each entry is paired with its recorded IC50.
recordsmiles=CC(=O)c1ccc(-c2cnc(N)c(C(=O)Nc3ccncc3)c2)s1 reading=510
recordsmiles=Nc1ncc(-c2ccc[nH]2)cc1C(=O)Nc1ccncc1 reading=3300
recordsmiles=Nc1ncc(-c2cnn(CCO)c2)cc1C(=O)Nc1ccncc1 reading=1700

(P) COCCn1cc(-c2cnc(N)c(C(=O)Nc3ccnc4ccoc34)c2)cn1
(Q) COCCn1cc(-c2cnc(N)c(C(=O)Nc3ccncc3Cl)c2)cn1
(R) Nc1ncc(-c2c[nH]c3ccccc23)cc1C(=O)Nc1ccncc1
(S) Nc1ncc(-c2ccc(CN3CCOCC3)s2)cc1C(=O)Nc1ccnnc1
(T) Cc1cc(NC(=O)c2cc(-c3ccc(CN4CCOCC4)s3)cnc2N)cc(C)n1
Returns the items ordered by IC50, from maximum to minimum. Labels, ranked as asked.
T, P, Q, R, S
